Test system: intracellular amastigote forms of Leishmania (Viannia) braziliensis
Protocol details: Antileishmanial assay on intracellular amastigotes of L. (V.) braziliensis LUC (firefly luciferase reporter) in THP-1 macrophages
Assay type: cell-based
Condition notes: Leishmania braziliensis; intracellular amastigotes in THP-1 macrophages, luciferase activity, 72 h
pIC50: −log10 of the molar value.
The following compounds are listed with their measured pIC50 values.
Property measured: pIC50

INSERT INTO measurements (compound, assayed_target, property_measured, observed_result) VALUES
  ('C=CCCC/C=C(/C(=O)O)[C@H](C)C(=O)O [Compound 3]', 'intracellular amastigote forms of Leishmania (Viannia) braziliensis', 'pIC50', '< 3.70'),
  ('CC(=O)O[C@@]1(CO)CC[C@H](C(C)C)[C@H]2C=C(C(=O)O)COC(=O)[C@@H]21 [Compound 1]', 'intracellular amastigote forms of Leishmania (Viannia) braziliensis', 'pIC50', 4.67),
  ('CC(C)[C@H]1CC[C@H]2COC(=O)[C@H]2[C@@H]1/C=C(\CO)C(=O)O [Compound 6, xylaric acid D]', 'intracellular amastigote forms of Leishmania (Viannia) braziliensis', 'pIC50', '< 3.70');

---

System: intracellular amastigote forms of Leishmania (Viannia) braziliensis
Protocol details: Antileishmanial assay on intracellular amastigotes of L. (V.) braziliensis LUC (firefly luciferase reporter) in THP-1 macrophages
Format: cell-based
Condition notes: Leishmania braziliensis; intracellular amastigotes in THP-1 macrophages, luciferase activity, 72 h
pIC50: −log10 of the molar value.
Lab note: compare pIC50 against 5. Equal or greater, write Satisfied. Smaller, write Not satisfied.

INSERT INTO measurements (molecule, classification) VALUES
  ('C[C@@H]1[C@H](O)[C@@H](C)/C=C/C=C/C=C/C=C/C=C/C=C/C=C/[C@H](O[C@@H]2O[C@H](C)[C@@H](O)[C@H](N)[C@@H]2O)C[C@@H]2O[C@](O)(C[C@@H](O)C[C@@H](O)[C@H](O)CC[C@@H](O)C[C@@H](O)CC(=O)O[C@H]1C)C[C@H](O)[C@H]2C(=O)O [Amphotericin B, reference compound]', 'Satisfied'),
  ('CC(=O)OCCCCC/C=C(/C(=O)O)[C@H](C)C(=O)O [Compound 2, (+)-6′-acetoxy-piliformic acid]', 'Not satisfied'),
  ('CCCCC/C=C(/C(=O)O)[C@H](C)C(=O)O [Compound 4, (+)-piliformic acid]', 'Not satisfied'),
  ('C=C1[C@@H](C)[C@H]2[C@H](Cc3ccccc3)NC(=O)[C@]23[C@H](OC(C)=O)/C=C/[C@@](C)(O)C(=O)[C@@H](C)C/C=C/[C@H]3[C@@H]1O [Compound 7, (+)-cytochalasin D]', 'Not satisfied'),
  ('CC(C)C1CCC2(O)COC(=O)C2C1C=C(CO)C(=O)O (centres unmarked) [Compound 5, hydroheptelidic acid]', 'Not satisfied');

The reported measurements were obtained from paper PMC5722265.
